- Tested on: TCAF cell line
- ASSAY COMMENT: Cytotoxicity, TCAF
- Format: cell-based
PROPERTY LABEL: IC50 (nM)
Numbers only, in nM.

Lookup: For the compound O=C(OCCS(=O)(=O)c1ccccc1)N1c2ccc(OCCO)cc2C23OC24CCCC3C#C/C=C\C#CC14 (stereo not shown) , what IC50 is on record?
Found: 1.1

---

- Test system: cancer cell lines
- ASSAY COMMENT: cells
- Assay type: cell-based
- TEST CONDITIONS: cancer cells; control drugs; read-out: Range of Average IC50 Values, Cancer Cells
PROPERTY LABEL: IC50

Lookup: Consider the compound COc1cccc2c1C(=O)c1c(O)c3c(c(O)c1C2=O)C[C@@](O)(C(=O)CO)C[C@@H]3O[C@H]1C[C@H](N)[C@H](O)[C@H](C)O1 [Doxorubicin, reference compound] and give its measured IC50.
Found: 0.16 to 98 nM

Cited source for all entries: patent US5281710A
